Target: KRAS G12V (Homo sapiens, UniProt P01116, G12V)
Sequence (P01116 1-188 isoform P01116-2 G12V): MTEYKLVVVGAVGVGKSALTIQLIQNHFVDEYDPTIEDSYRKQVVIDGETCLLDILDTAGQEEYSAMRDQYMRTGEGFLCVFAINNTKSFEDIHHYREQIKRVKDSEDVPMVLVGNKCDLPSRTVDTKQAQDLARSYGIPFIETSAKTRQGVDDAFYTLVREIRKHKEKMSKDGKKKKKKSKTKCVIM
Assay: GDP-GTP exchange assay (bodipy-GDP/GppNHp, SOS1), KRAS G12V
Conditions: bodipy-loaded KRAS G12V 2.5 nM, 3 hours incubation after adding GppNHp-SOS1; read-out: G12V_exchange IC50
pIC50: −log10 of the molar value.
VALUE KIND: pIC50

Previously resolved entries follow.
CC(=O)N1CCN(C(=O)CCc2nc3c(N4CC(N(C)C)C4)nc4c(F)c(-c5cc(O)cc6ccccc56)c(CCC#N)cc4c3n2C2C3CNC2C3)CC1 (single isomer, unassigned) [Example 4a]: ≥ 7.00
CN(C)C1CN(c2nc3c(F)c(-c4cc(O)cc5ccccc45)c(CCC#N)cc3c3c2nc(-c2ccc4[nH]ncc4c2)n3C2C3CNC2C3)C1 (single isomer, unassigned) [Example 38a]: ≥ 7.00
CCc1nc2c(Oc3ccccc3)nc3c(F)c(-c4cc(O)cc5ccccc45)c(CCC#N)cc3c2n1C1C2CNC1C2 (single isomer, unassigned) [Example 24a]: 6.00 to 7.00
C[C@H](Oc1nc2c(F)c(-c3cccc4cccc(C#N)c34)c(Cl)cc2c2c1ncn2[C@H]1CCN(C(=O)C2CC2)[C@H](CC#N)C1)[C@@H]1CCCN1C [Example 43]: 6.00 to 7.00

Note: attention shifts to another entry.
Q) Which measured pIC50 value corresponds to CN(C)C(=O)CCc1nc2c(N3CC(N(C)C)C3)nc3c(F)c(-c4nc(N)cc5ccccc45)c(CCC#N)cc3c2n1C1C2CNC1C2 (single isomer, unassigned) [Example 31a] ?
A) 5.00 to 5.30
